Assay: Biodistribution in Daudi xenograft bearing mice
Assay type: in vivo, mouse
Settings: female, CB-17 SCID, mouse, spleen, iv, total radioactivity, 1h p.i., tracer only, i.v.; γ-counter; means ± SD, n=4-5 (68Ga: n=4); read-out: Biodistribution spleen
Where a SMILES comes first, the peptide text is derived from it. Side-chain parts run from the residue outwards. [ ]: non-standard residue; d: D form. The star is where a group is joined. DOTA = O=C(O)CN1CCN(CC(=O)O)CCN(CC(=O)*)CCN(CC(=O)O)CC1; 2Nal = N[C@@H](Cc1ccc2ccccc2c1)C(=O)O; dNMeOrn = CN[C@H](CCCN)C(=O)O; 4Abz = Nc1ccc(C(=O)O)cc1
measurement_kind: tissue uptake at 1 h (%ID/g)
Your answer should be a plain number; it is taken to be in %ID/g.

Q. I would be grateful if you could share the reported tissue uptake at 1 h for C[C@@H](NC(=O)[C@@H](CCCNC(=N)N)NC(=O)CN1CCN(CC(=O)O)CCN(CC(=O)O)CCN(CC(=O)O)CC1)C(=O)Nc1ccc(C(=O)NCCC[C@@H]2C(=O)N[C@@H](CCCNC(=N)N)C(=O)N[C@@H](Cc3ccc4ccccc4c3)C(=O)NCC(=O)N[C@H](Cc3ccc(O)cc3)C(=O)N2C)cc1 [[^68Ga]DOTA-r-a-ABA-CPCR4, metal not drawn] (cyclo([2Nal]G[dY][dNMeOrn]([4Abz-dA-dR-DOTA])R)) .
A. 2.01
